These entries and their values trace back to PubChem BioAssay AID2060626.

- System: 168753-222-R-J1-PDC complex spheroid viability
- Procedure Summary: Anticancer human tumor 168753-222-R-J1-PDC patient-derived bladder carcinoma cell line growth inhibition [CLK]
- Measurement Conditions: second compound 0.316 µM; first compound 1 µM; stronger effect = lower value
# note: exactly 70% is not below, so it is not satisfied; use satisfied for viability, T/C strictly under it

- Molecule: "Nc1ccn(C2OC(CO)C(O)C2(F)F)c(=O)n1 (stereo not given) + CNC(=O)c1ccc(Nc2nc(OC3CCCC3)c3c(-c4ccc5nc(C)oc5c4)c[nH]c3n2)c(OC)c1"
  Assigned Label: "satisfied"
- Molecule: "CC(CO)NC(=O)c1cc(-c2ccc(Cl)cc2)nn(-c2cnn(C)c2)c1=O (stereo not given) + CNC(=O)c1ccc(Nc2nc(OC3CCCC3)c3c(-c4ccc5nc(C)oc5c4)c[nH]c3n2)c(OC)c1"
  Assigned Label: "not satisfied"
- Molecule: "COc1ccc([C@@H](O)c2cc(-c3ncnc4cc(N5CCOCC5)ccc34)c(F)cc2Cl)nn1 + CNC(=O)c1ccc(Nc2nc(OC3CCCC3)c3c(-c4ccc5nc(C)oc5c4)c[nH]c3n2)c(OC)c1"
  Assigned Label: "satisfied"
- Molecule: "CCCS(=O)(=O)Nc1ccc(F)c(C(=O)c2c[nH]c3ncc(-c4ccc(Cl)cc4)cc23)c1F + CNC(=O)c1ccc(Nc2nc(OC3CCCC3)c3c(-c4ccc5nc(C)oc5c4)c[nH]c3n2)c(OC)c1"
  Assigned Label: "not satisfied"
- Molecule: "C=C(F)C(=O)N1CCN(c2nc(OCC3CCCN3C)nc3c2CCN(c2cccc4cccc(Cl)c24)C3)CC1CC#N (stereo not given) + CNC(=O)c1ccc(Nc2nc(OC3CCCC3)c3c(-c4ccc5nc(C)oc5c4)c[nH]c3n2)c(OC)c1"
  Assigned Label: "not satisfied"
- Molecule: "CCCS(=O)(=O)Nc1ccc(F)c(C(=O)c2c[nH]c3ncc(-c4ccc(Cl)cc4)cc23)c1F + CN1CCN(c2cc(C(=O)Nc3cc4cc(-c5cnn(C)c5)ccc4cn3)ccn2)CC1"
  Assigned Label: "satisfied"
- Molecule: "C=CC(=O)N1CCN(c2nc(=O)n(-c3c(C)ccnc3C(C)C)c3nc(-c4c(O)cccc4F)c(F)cc23)C(C)C1 (stereo not given) + CN1CCN(c2cc(C(=O)Nc3cc4cc(-c5cnn(C)c5)ccc4cn3)ccn2)CC1"
  Assigned Label: "satisfied"
- Molecule: "CC(=O)O[C@H]1C(=O)[C@@]2(C)[C@H]([C@H](OC(=O)c3ccccc3)[C@]3(O)C[C@H](OC(=O)[C@H](O)[C@@H](NC(=O)c4ccccc4)c4ccccc4)C(C)=C1C3(C)C)[C@]1(OC(C)=O)CO[C@@H]1C[C@@H]2O + CN1CCN(c2cc(C(=O)Nc3cc4cc(-c5cnn(C)c5)ccc4cn3)ccn2)CC1"
  Assigned Label: "satisfied"
- Molecule: "C#Cc1c(F)ccc2cc(O)cc(-c3ncc4c(N5CC6CCC(C5)N6)nc(OCC56CCCN5CC(F)C6)nc4c3F)c12 (stereo not given) + CNC(=O)c1ccc(Nc2nc(OC3CCCC3)c3c(-c4ccc5nc(C)oc5c4)c[nH]c3n2)c(OC)c1"
  Assigned Label: "not satisfied"
- Molecule: "CC(=O)O[C@H]1C(=O)[C@@]2(C)[C@H]([C@H](OC(=O)c3ccccc3)[C@]3(O)C[C@H](OC(=O)[C@H](O)[C@@H](NC(=O)c4ccccc4)c4ccccc4)C(C)=C1C3(C)C)[C@]1(OC(C)=O)CO[C@@H]1C[C@@H]2O + CNC(=O)c1ccc(Nc2nc(OC3CCCC3)c3c(-c4ccc5nc(C)oc5c4)c[nH]c3n2)c(OC)c1"
  Assigned Label: "not satisfied"

----------
Measured viability, T/C by item
- Tested on: 168753-222-R-J1-PDC complex spheroid viability
- Procedure Summary: Anticancer human tumor 168753-222-R-J1-PDC cell line growth inhibition [CLK];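 also: viability measured after seven days of drug exposure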;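 as to viability, T/C: luminescence signal used as surrogate for viable cell amount; 100% = DMSO vehicle control wells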
- Measurement Conditions: second compound 3.16 µM; first compound 10 µM; stronger effect = lower value

- Compound: "CC1COCCN1c1cc(C2(S(C)(=N)=O)CC2)nc(-c2ccnc3[nH]ccc23)n1 (stereo not drawn) + CNC(=O)c1ccc(Nc2nc(OC3CCCC3)c3c(-c4ccc5nc(C)oc5c4)c[nH]c3n2)c(OC)c1"
  Target: "168753-222-R-J1-PDC complex spheroid viability"
  viability, T/C: "14.2%"
- Compound: "CC(CO)NC(=O)c1cc(-c2ccc(Cl)cc2)nn(-c2cnn(C)c2)c1=O (stereo not drawn) + CN1CCN(c2cc(C(=O)Nc3cc4cc(-c5cnn(C)c5)ccc4cn3)ccn2)CC1"
  Target: "168753-222-R-J1-PDC complex spheroid viability"
  viability, T/C: "0.21%"
- Compound: "Nc1ccccc1NC(=O)c1ccc(CNC(=O)OCc2cccnc2)cc1 + CNC(=O)c1ccc(Nc2nc(OC3CCCC3)c3c(-c4ccc5nc(C)oc5c4)c[nH]c3n2)c(OC)c1"
  Target: "168753-222-R-J1-PDC complex spheroid viability"
  viability, T/C: "3.07%"

----------
- Tested on: 168753-222-R-J1-PDC complex spheroid viability
- Procedure Summary: Anticancer human tumor 168753-222-R-J1-PDC cell line growth inhibition [CLK];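 also: viability measured after seven days of drug exposure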
- Measurement Conditions: curve of first compound; second compound 1 µM
Readings of IC50 for the listed compounds

- Compound: "Cn1ncnc1[C@H]1c2n[nH]c(=O)c3cc(F)cc(c23)N[C@@H]1c1ccc(F)cc1 + CNC(=O)c1ccc(Nc2nc(OC3CCCC3)c3c(-c4ccc5nc(C)oc5c4)c[nH]c3n2)c(OC)c1"
  Target: "168753-222-R-J1-PDC complex spheroid viability"
  IC50: "< 0.316 nM"
- Compound: "O=C(c1cc(Cc2n[nH]c(=O)c3ccccc23)ccc1F)N1CCN(C(=O)C2CC2)CC1 + CN1CCN(c2cc(C(=O)Nc3cc4cc(-c5cnn(C)c5)ccc4cn3)ccn2)CC1"
  Target: "168753-222-R-J1-PDC complex spheroid viability"
  IC50: "< 31.6 nM"
- Compound: "CC(Nc1ccc2c(c1)OCCn1cc(N3C(=O)OCC3C(F)F)nc1-2)C(N)=O (configuration not stated) + CNC(=O)c1ccc(Nc2nc(OC3CCCC3)c3c(-c4ccc5nc(C)oc5c4)c[nH]c3n2)c(OC)c1"
  Target: "168753-222-R-J1-PDC complex spheroid viability"
  IC50: "< 31.6 nM"
- Compound: "CCCS(=O)(=O)Nc1ccc(F)c(C(=O)c2c[nH]c3ncc(-c4ccc(Cl)cc4)cc23)c1F + CNC(=O)c1ccc(Nc2nc(OC3CCCC3)c3c(-c4ccc5nc(C)oc5c4)c[nH]c3n2)c(OC)c1"
  Target: "168753-222-R-J1-PDC complex spheroid viability"
  IC50: "3860 nM"
- Compound: "O=C(c1cc(Cc2n[nH]c(=O)c3ccccc23)ccc1F)N1CCN(C(=O)C2CC2)CC1 + CNC(=O)c1ccc(Nc2nc(OC3CCCC3)c3c(-c4ccc5nc(C)oc5c4)c[nH]c3n2)c(OC)c1"
  Target: "168753-222-R-J1-PDC complex spheroid viability"
  IC50: "< 31.6 nM"
- Compound: "COc1c(OCCCN2CCOCC2)ccc2c3n(c(=NC(=O)c4cnc(N)nc4)nc12)CCN3 + CN1CCN(c2cc(C(=O)Nc3cc4cc(-c5cnn(C)c5)ccc4cn3)ccn2)CC1"
  Target: "168753-222-R-J1-PDC complex spheroid viability"
  IC50: "< 3.16 nM"
- Compound: "CC(CO)NC(=O)c1cc(-c2ccc(Cl)cc2)nn(-c2cnn(C)c2)c1=O (configuration not stated) + CNC(=O)c1ccc(Nc2nc(OC3CCCC3)c3c(-c4ccc5nc(C)oc5c4)c[nH]c3n2)c(OC)c1"
  Target: "168753-222-R-J1-PDC complex spheroid viability"
  IC50: "< 31.6 nM"

----------
- System: 168753-222-R-J1-PDC complex spheroid viability
- Procedure Summary: Anticancer human tumor 168753-222-R-J1-PDC cell line growth inhibition [CLK];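 also: viability measured after seven days of drug exposure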;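 as to viability, T/C: luminescence signal used as surrogate for viable cell amount; 100% = DMSO vehicle control wells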
- Measurement Conditions: second compound 0.316 µM; first compound 0.1 µM; stronger effect = lower value
Recorded Endpoint: viability, T/C

- Compound: "CCN1CCN(Cc2ccc(Nc3ncc(F)c(-c4cc(F)c5nc(C)n(C(C)C)c5c4)n3)nc2)CC1 + CN1CCN(c2cc(C(=O)Nc3cc4cc(-c5cnn(C)c5)ccc4cn3)ccn2)CC1"
  Recorded Endpoint: "viability, T/C"
  Reported: "8.47%"
- Compound: "CC1COCCN1c1cc(C2(S(C)(=N)=O)CC2)nc(-c2ccnc3[nH]ccc23)n1 (stereo not given) + CN1CCN(c2cc(C(=O)Nc3cc4cc(-c5cnn(C)c5)ccc4cn3)ccn2)CC1"
  Recorded Endpoint: "viability, T/C"
  Reported: "9.28%"
- Compound: "CCCS(=O)(=O)Nc1ccc(F)c(C(=O)c2c[nH]c3ncc(-c4ccc(Cl)cc4)cc23)c1F + CNC(=O)c1ccc(Nc2nc(OC3CCCC3)c3c(-c4ccc5nc(C)oc5c4)c[nH]c3n2)c(OC)c1"
  Recorded Endpoint: "viability, T/C"
  Reported: "98.7%"
- Compound: "O=c1[nH]cc(F)c(=O)[nH]1 + CN1CCN(c2cc(C(=O)Nc3cc4cc(-c5cnn(C)c5)ccc4cn3)ccn2)CC1"
  Recorded Endpoint: "viability, T/C"
  Reported: "10%"
- Compound: "Nc1ccccc1NC(=O)c1ccc(CNC(=O)OCc2cccnc2)cc1 + CN1CCN(c2cc(C(=O)Nc3cc4cc(-c5cnn(C)c5)ccc4cn3)ccn2)CC1"
  Recorded Endpoint: "viability, T/C"
  Reported: "8.55%"
